Data provenance: PubChem BioAssay (Tox21)

# ASSAY_PROCEDURE: qHTS assay to identify small molecule antagonists of the thyroid receptor (TR) signaling pathway (AID 743065); also: nearly all actives have a fitted effect of over 55% in size
# EXPERIMENTAL_CONTEXT: GH3.TRE-Luc, T3-stimulated luciferase inhibition, 23.5 h; series mostly up to 70.3 µM
Results filed as inconclusive are left out. The source made the active and inactive calls. Calls follow the shape of the dose curve; as a rule, active = well fitted inhibition curve with a large enough effect in the repeat runs; inconclusive = weak or mixed curves; inactive = no such curve, though single readings can be large or run the other way.
Possible outcomes: yes (1) (active), no (0) (inactive)

{"MOLECULE": "NCCc1cnc[nH]1", "LABEL_CLASS": "no (0)"}
{"MOLECULE": "CC(C)(c1ccc(O)cc1)c1ccc(O)cc1", "LABEL_CLASS": "yes (1)"}
{"MOLECULE": "CC(=O)Nc1ccc(S(N)(=O)=O)cc1", "LABEL_CLASS": "no (0)"}
{"MOLECULE": "COc1ccc2c(c1)c(CC(=O)OCC(=O)O)c(C)n2C(=O)c1ccc(Cl)cc1", "LABEL_CLASS": "no (0)"}
{"MOLECULE": "CCc1ccc(O)c(OC)c1", "LABEL_CLASS": "no (0)"}
{"MOLECULE": "N=C(N)c1ccc(OCCCOc2ccc(C(=N)N)cc2)cc1", "LABEL_CLASS": "no (0)"}
{"MOLECULE": "CC(C)(C)c1nnc(NS(=O)(=O)c2ccccc2)s1", "LABEL_CLASS": "no (0)"}
{"MOLECULE": "CN1C(=O)N(C)C(O)C1O (centres undefined)", "LABEL_CLASS": "no (0)"}
{"MOLECULE": "CC(C)NCC(O)c1ccc(NS(C)(=O)=O)cc1 (centres undefined)", "LABEL_CLASS": "no (0)"}
{"MOLECULE": "CC(C[N+](C)(C)C)OC(N)=O (centres undefined)", "LABEL_CLASS": "no (0)"}
{"MOLECULE": "CCC(=O)OC(C)c1ccccc1 (centres undefined)", "LABEL_CLASS": "no (0)"}
{"MOLECULE": "CCn1ccnc1CC1COc2ccccc2O1 (centres undefined)", "LABEL_CLASS": "no (0)"}
{"MOLECULE": "Cn1cc(S(C)=O)c(=O)c2ccc(F)cc21 (centres undefined)", "LABEL_CLASS": "no (0)"}
{"MOLECULE": "O=Cc1cccc([N+](=O)[O-])c1", "LABEL_CLASS": "no (0)"}

###

# ASSAY_PROCEDURE: A CellTox Green Cytotoxicity Assay to monitor cytotoxicity in HEK293 cells - 8 hour (AID 1224884); also: % is scaled to controls: 0 for no effect and ±100 for the full control effect; nearly all actives have a fitted effect of over 35% in size
# EXPERIMENTAL_CONTEXT: CellTox Green fluorescence; series mostly up to 76.8 µM
Results filed as inconclusive are left out. Active and inactive are the calls of the source. The call rests on the fitted dose curve; in most records, active means well fitted activation curve with a large enough effect in the repeat runs; inconclusive means weak or mixed curves; inactive means flat fitted curve, though single readings scatter.

{"COMPOUND": "NCCCNCCSP(=O)(O)O", "cytotoxicity increase": "3.38% [at 6.97 µM] (inactive)"}
{"COMPOUND": "CCC(C)S (centres undefined)", "cytotoxicity increase": "0.141% [at 2.72 µM] (inactive)"}
{"COMPOUND": "N=C(N)c1ccc(OCCCOc2ccc(C(=N)N)cc2)cc1", "cytotoxicity increase": "inactive"}
{"COMPOUND": "COC(=O)CCSCCC(=O)OC", "cytotoxicity increase": "inactive"}
{"COMPOUND": "CCCCCCCCS(=O)(=O)Cl", "cytotoxicity increase": "inactive"}
{"COMPOUND": "CO/N=C(/C(=O)N[C@@H]1C(=O)N2C(C(=O)OCOC(=O)C(C)(C)C)=C(C)CS[C@H]12)c1csc(N)n1", "cytotoxicity increase": "inactive"}
{"COMPOUND": "NC(=O)c1cn(Cc2c(F)cccc2F)nn1", "cytotoxicity increase": "inactive"}
{"COMPOUND": "Nc1ccc(S(=O)(=O)Nc2ccnn2-c2ccccc2)cc1", "cytotoxicity increase": "1.9% [at 15.8 µM] (inactive)"}
{"COMPOUND": "C[C@](N)(Cc1ccc(O)cc1)C(=O)O", "cytotoxicity increase": "2.1% [at 6.97 µM] (inactive)"}
{"COMPOUND": "Nc1ccccc1S(=O)(=O)O", "cytotoxicity increase": "inactive"}
{"COMPOUND": "CN1CC(=O)NC1=N", "cytotoxicity increase": "inactive"}
{"COMPOUND": "CCN1CCC[C@H]1CNC(=O)c1c(O)c(Cl)cc(Cl)c1OC", "cytotoxicity increase": "inactive"}
{"COMPOUND": "CC(=O)OC/C=C(\\C)CC/C=C(\\C)CCC=C(C)C", "cytotoxicity increase": "inactive"}
{"COMPOUND": "Brc1c(NC2=NCCN2)ccc2nccnc12", "cytotoxicity increase": "inactive"}
